- Protocol description: Cmax in mouse at 10 mg/kg, po
- Type: ADME, organism-based
- Experimental parameters: in vivo
Value kind: Cmax (ng/mL)
Quick reminder: number only, in ng/mL, skip the unit.

QUERY: Give the reported value of Cmax for this record: C=C(C)C(=O)Nc1ccc(-c2c(-c3ccc(S4(=O)=NCCCCC4)cc3)c3c(N)ncnc3n2C)c(F)c1 (stereo unspecified)
RESULT: 2910

* * *

- Test system: BaF3
- Protocol description: Antiproliferative activity against mouse BaF3 cells expressing FGFR2 incubated for 72 hrs by CCK-8 assay
- Assay type: functional, cell-based
- Experimental parameters: BaF3, 72 h
Value kind: pIC50
Schema: pIC50 number; meaning minus log10 of the concentration expressed in molar units.

QUERY: Give the reported value of pIC50 for this record: C=CC(=O)Nc1ccc(-c2c(-c3ccc(S(=N)(=O)C4CCCCC4)cc3)c3c(N)ncnc3n2C)cc1 (configuration not stated)
RESULT: 8.05

QUERY: Give the reported value of pIC50 for this record: C=CC(=O)Nc1ccc(-c2c(-c3ccc(S4(=O)=NCCC4)cc3)c3c(N)ncnc3n2C)cc1 (configuration not stated)
RESULT: 7.92

QUERY: Give the reported value of pIC50 for this record: C=CC(=O)Nc1ccc(-c2c(-c3ccc(S4(=O)=NCCOCC4)cc3)c3c(N)ncnc3n2C)cc1 (configuration not stated)
RESULT: 6.51

QUERY: Give the reported value of pIC50 for this record: C=CC(=O)Nc1ccc(-c2c(-c3ccc(S(C)(=O)=NCC)cc3)c3c(N)ncnc3n2C)cc1 (configuration not stated)
RESULT: 6.82

QUERY: Give the reported value of pIC50 for this record: C=CC(=O)Nc1ccc(-c2c(-c3ccc(S(C)(=O)=NC4CC4)cc3)c3c(N)ncnc3n2C)cc1 (configuration not stated)
RESULT: 6.97

QUERY: Give the reported value of pIC50 for this record: C=CC(=O)Nc1ccc(-c2c(-c3ccc(S(=O)(CCC)=NC)cc3)c3c(N)ncnc3n2C)cc1 (configuration not stated)
RESULT: 7.45

QUERY: Give the reported value of pIC50 for this record: CCN1C(=O)N(c2c(F)c(OC)cc(OC)c2F)Cc2cnc3[nH]c(CN4CCOCC4)cc3c21 [PEMIGATINIB]
RESULT: 8.70

QUERY: Give the reported value of pIC50 for this record: C=CC(=O)Nc1ccc(-c2c(-c3ccc(S(C)(=N)=O)cc3)c3c(N)ncnc3n2C)cc1 (configuration not stated)
RESULT: 6.04

QUERY: Give the reported value of pIC50 for this record: C=CC(=O)Nc1ccc(-c2c(-c3ccc(S(=N)(=O)C4CCCCCC4)cc3)c3c(N)ncnc3n2C)cc1 (configuration not stated)
RESULT: 8.43

These data points were gathered from ChEMBL document CHEMBL6114968.
